Entry source: the Deep4Chem optical property database

assay: solvent given as SMILES; conditions: in CS(C)=O
So basically, if emission maximum comes in under 500 nm it's Satisfied, and if it's 500 nm or more it's Not satisfied.

Solved entries (count: 5):
O=c1c2ccccc2[nH]c2ccccc12 : Satisfied
CC1=N/C(=C\c2ccccc2N)C(=O)N1C : Not satisfied
CN(C)c1ccc(C#Cc2ncnc3ccccc23)cc1 : Not satisfied
O=S(=O)([O-])c1ccc(O)c2ccccc12 : Satisfied
COc1cc2c3cc(OC)c(OC)cc3c3cc4c(C)cc(=O)oc4cc3c2cc1OC : Not satisfied

input: Please indicate whether the reported emission maximum of "CN(C)c1c2ccccc2cc2ccccc12" is strictly below 500 nm.
output: Satisfied

input: Please indicate whether the reported emission maximum of "c1cc2ccc3ccc(-c4ccc(-c5nnc(-c6ccc(-c7nnc(-c8ccc(-c9ccc%10ccc%11cccc%12ccc9c%10c%11%12)s8)o7)cc6)o5)s4)c4ccc(c1)c2c34" is strictly below 500 nm.
output: Satisfied

input: Please indicate whether the reported emission maximum of "CC1(C)CC(/C=C/c2cn(-c3ccccc3)nc2-c2ccccc2)=CC(=C(C#N)C#N)C1" is strictly below 500 nm.
output: Not satisfied

input: Please indicate whether the reported emission maximum of "C#CCn1c2ccccc2c2cc(/C=C/c3cc(C)c4n3[B-](F)(F)[N+]3=C(C)C=C(C)C3=C4c3ccc(I)cc3)ccc21" is strictly below 500 nm.
output: Not satisfied

input: Please indicate whether the reported emission maximum of "N=c1oc2ccccc2cc1-c1ccc([N+](=O)[O-])cc1" is strictly below 500 nm.
output: Not satisfied

input: Please indicate whether the reported emission maximum of "Brc1ccc(-c2nc3sc4ccccc4c3s2)cc1" is strictly below 500 nm.
output: Satisfied

input: Please indicate whether the reported emission maximum of "CC1=N/C(=C\c2ccccc2N(C)C)C(=O)N1C" is strictly below 500 nm.
output: Not satisfied

input: Please indicate whether the reported emission maximum of "CCN(CC)c1ccc2cc(/C=C/C3=CC(/C=C/c4cc5ccc(N(CC)CC)cc5oc4=O)=[O+][B-](F)(F)O3)c(=O)oc2c1" is strictly below 500 nm.
output: Not satisfied

input: Please indicate whether the reported emission maximum of "CN(C)c1ccc(/C=C/C=C2\CC/C(=C\C=C\c3ccc(N(C)C)cc3)C2=O)cc1" is strictly below 500 nm.
output: Not satisfied

input: Please indicate whether the reported emission maximum of "Cc1cc(C)cc(NC(=O)c2sc(Br)nc2C)c1" is strictly below 500 nm.
output: Satisfied

input: Please indicate whether the reported emission maximum of "CCN(CC)c1ccc2cc(-c3cn4ccccc4n3)c(=O)oc2c1" is strictly below 500 nm.
output: Satisfied

input: Please indicate whether the reported emission maximum of "COc1ccc(/C=C/c2cc(/C=C/c3ccc(OC)cc3)nc(/C=C/c3ccc4cc(OC)ccc4c3)n2)cc1" is strictly below 500 nm.
output: Satisfied

input: Please indicate whether the reported emission maximum of "CN(C)c1ccc(C(=O)c2ccccc2)cc1" is strictly below 500 nm.
output: Not satisfied

input: Please indicate whether the reported emission maximum of "CCN(CC)c1ccc2c(c1)oc(=O)c1c(=O)oc3cc(C#Cc4ccc(C#N)cc4)ccc3c12" is strictly below 500 nm.
output: Not satisfied

----------
experiment: solvent given as SMILES; details: in C1CCOC1
ATTRIBUTE MEASURED: emission maximum (nm)
Give the value in nm but do not write nm after it.

// worked examples, emission maximum included
c1ccc(/C(=C(\c2ccccc2)c2cc(-c3ccccc3)ccc2-c2ccc(-c3ccccc3)cc2)c2cc(-c3ccccc3)ccc2-c2ccc(-c3ccccc3)cc2)cc1 : 494
Cc1cc(-c2ccc(-c3ccccc3)cc2)nc(-c2ccc(-n3c4ccccc4c4ccccc43)cc2)n1 : 418
Cc1ccc(-n2c3ccccc3c3cc(C(=C(C#N)C#N)c4ccccc4)ccc32)cc1 : 527
COCCOCCOCCOc1ccc(/C=C/C2=[N+]3C(=C(c4cc(OC)cc(OC)c4)c4c(C)c(I)c(/C=C/c5ccc(OCCOCCOCCOC)cc5)n4[B-]3(F)F)C(C)=C2I)cc1 : 684
CCCCCCCCCCCCOc1cc(/C=C/c2ccc3c(c2)C(CC)(CC)c2cc(N4c5ccccc5Sc5ccccc54)ccc2-3)c(OCCCCCCCCCCCC)cc1/C=C/c1ccc2c(c1)C(CC)(CC)c1cc(N3c4ccccc4Sc4ccccc43)ccc1-2 : 474
CCN(CC)c1ccc2cc(-c3cn4ccccc4n3)c(=O)oc2c1 : 474

Lookup result for "CCCCCCCCCCCCN1C(=O)c2cccc3c(N(Cc4ccccn4)Cc4ccccn4)c4ccccc4c(c23)C1=O" ; measured emission maximum: 583

Lookup result for "COc1cc2c(cc1/C=C/C(=C(C#N)C#N)c1ccccc1)c1ccccc1n2C" ; measured emission maximum: 568

Lookup result for "c1ccc2c(c1)c1ccccc1n2-c1ccc(-c2ccn3nc(-c4ccc(-n5c6ccccc6c6ccccc65)cc4)nc3c2)cc1" ; measured emission maximum: 413

Lookup result for "CCN(CC)c1ccc2cc(/C=C/C(=O)/C=C(O)/C=C/c3cc4ccc(N(CC)CC)cc4oc3=O)c(=O)oc2c1" ; measured emission maximum: 568

Lookup result for "CN(C)c1ccc(C#Cc2ncnc3ccccc23)cc1" ; measured emission maximum: 540

Lookup result for "C1=C(c2ccccc2)C=C(c2ccccc2)/C1=C/c1cccc(Oc2ccccc2)c1" ; measured emission maximum: 506

----------
test: solvent given as SMILES; conditions: in CO
Collected emission maximum values appear next to each entry.
Give the value in nm but do not write nm after it.

Lookup result for "C/C(=N\Nc1ccc(C#N)cc1)c1cccc(/C(C)=N/Nc2ccc(C#N)cc2)c1" ; measured emission maximum: 525

----------
experiment: solvent given as SMILES; details: in CS(C)=O
ATTRIBUTE MEASURED: emission maximum (nm)
Give the value in nm but do not write nm after it.

// worked examples, emission maximum included
COCCOCCOCCOc1ccc(/C=C/C2=[N+]3C(=C(c4cc(OC)cc(OC)c4)c4c(C)c(I)c(/C=C/c5ccc(OCCOCCOCCOC)cc5)n4[B-]3(F)F)C(C)=C2I)cc1 : 695
C#CCN1C(=O)/C(=C/c2cc(OC(C)C)ccc2OC(C)C)N=C1C : 510
Clc1ccc(-c2nc3sc4ccccc4c3s2)cc1 : 418
Cc1ccc(C2CC(c3ccc(O)cc3)=NN2c2ccc(S(N)(=O)=O)cc2)cc1 (stereo not drawn) : 424
COC(=O)c1ccc(-c2ccc(-c3nnc(-c4ccc(-c5nnc(-c6ccc(-c7ccc(C(=O)OC)cc7)s6)o5)cc4)o3)s2)cc1 : 420
CC1=CC(c2ccc(N(C)C)cc2)=[N+]2C1=Nc1c(C)cc(-c3ccc(N(C)C)cc3)n1[B-]2(F)F : 822
C(=C\c1nc2ccccc2[nH]1)/c1ccc(/C=C/c2nc3ccccc3[nH]2)cc1 : 439
Cc1ccc(Nc2ccc(Nc3ccc(C)cc3)c3c2C(=O)c2ccccc2C3=O)cc1 : 689
C(=C\c1ncnc2ccccc12)/c1ccc(N2CCCCC2)cc1 : 589
CCCCOc1ccc(-c2oc3cc4n(c3c2-c2ccc(OCCCC)cc2)[B-](F)(F)[N+]2=Cc3cc5oc(-c6ccc(OCCCC)cc6)c(-c6ccc(OCCCC)cc6)c5n3[B-](F)(F)[N+]2=C4)cc1 : 647

Lookup result for "C[n+]1ccc(/C=C/c2ccc(N(c3ccccc3)c3ccc(/C=C/c4cc[n+](C)cn4)cc3)cc2)nc1" ; measured emission maximum: 720

Lookup result for "C(=C\c1cccc2ccccc12)/c1ccc(-c2nnc(-c3ccc(-c4cc5ccccc5s4)cc3)o2)cc1" ; measured emission maximum: 455

----------
test: solvent given as SMILES; settings: in O
Collected emission maximum values appear next to each entry.
Give the value in nm but do not write nm after it.

// worked examples, emission maximum included
CN(CC(O)c1cccc(O)c1)c1ccc([N+](=O)[O-])c(C2CC(c3cccc4ccccc34)=NN2c2ccccc2)c1 (stereo unspecified) : 518
CCCN1/C(=C/C=C(/C=C/C2=[N+](CCC)c3ccccc3C2(C)C)c2ccc([N+](=O)[O-])cc2)C(C)(C)c2ccccc21 : 663
CN(C)c1ccc2cc3ccc(N(C)C)cc3nc2c1 : 530
COC(=O)c1nc(-c2ccccc2)oc1C : 328
CC1=N/C(=C\c2ccc(N(C)C)cc2)C(=O)N1C : 520

Lookup result for "CN(C)c1ccc2cc3ccc(=[N+](C)C)cc-3oc2c1" ; measured emission maximum: 565

Lookup result for "O=Cc1ccc(-c2ccc(O)c(-c3nc4ccccc4s3)c2)s1" ; measured emission maximum: 574

Lookup result for "CN1CCN(CCCN2c3ccccc3Sc3ccc(Cl)cc32)CC1" ; measured emission maximum: 457

Lookup result for "C#CCOc1ccc(/C=C/C2=[N+]3C(=C(c4ccc(N(CC)CC)cc4)c4c(C)cc(/C=C/c5ccc(S(=O)(=O)O)cc5S(=O)(=O)O)n4[B-]3(F)F)C(C)=C2)cc1" ; measured emission maximum: 660

Lookup result for "CN(C)c1c2ccccc2cc2ccccc12" ; measured emission maximum: 390
